- measurementDescription: probe aCHRDL2 binding to arrayed compounds – biochemical, biotinylated probe, 635/667 nm fluorescence, primary screen (AID 1100)
- conditionLabel: small-molecule microarray, higher = more signal
Please respond with reported composite z-score for every item in the list.
Please reply with the value in numeric form only.

Request: What value of composite z-score has been recorded for this entry: COC(=O)[C@@]1(Cc2ccc(F)cc2)[C@@H]2[C@@H](CC(=O)[C@H]2CC(=O)C(=O)N2CCCC2)CN1C(=O)c1ccccc1
Response: 0.807

Request: // repeat for NC(=O)NCC#Cc1ccc2c(c1)[C@]1(C(=O)N2)[C@H](c2ccc(O)cc2)N2[C@H](c3ccccc3)[C@H](c3ccccc3)OC(=O)[C@H]2[C@@H]1C(N)=O and report
Response: 0.55

Request: // repeat for O=C1C[C@@](C(=O)O)(c2ccc([N+](=O)[O-])cc2)[C@@H](c2ccc(CO)cc2)N1CC12CC3CC(CC(C3)C1)C2 and report
Response: 0.771

---

- measurementDescription: growth of efflux-deficient E. coli DRC39 – strain DRC39, OD650, 48 h, E. coli filamentation inducers, primary screen (AID 1179);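 note: screen aims at cell division blockers that make cells filament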
- conditionLabel: E. coli DRC39 delta-acrAB growth, higher = more signal, called active from +8 up or from −8 down
experimentalEndpoint: z-score
Please reply with the value in numeric form only.

Request: What value of z-score has been recorded for this entry: COC(=O)C(CC#Cc1ccc2c(c1)[C@]1(C(=O)N2)[C@H](C(=O)N2CCc3cc(OC)c(OC)cc3C2)[C@H]2C(=O)O[C@H](c3ccccc3)[C@H](c3ccccc3)N2[C@@H]1c1ccc(OCCO)cc1)C(=O)OC
Response: 0.704

Request: // repeat for C[C@]12C(=O)N(CCCO)[C@@H]3C(=O)N(c4ccc(Cl)cc4)CC=CC31O[C@@H]1/C=C\CCCOC(=O)C12 (stereo partly specified) and report
Response: -0.464

Request: // repeat for CC1C=C(CCCO)C=C(C(=O)OCCS(C)(=O)=O)C(C(=O)OCCS(C)(=O)=O)=CN1Cc1cccc(OC(F)(F)F)c1 (stereo unspecified) and report
Response: 0.503

Request: // repeat for COCCOC(=O)N1C(=O)[C@@]2(c3cc(C#CC4(O)CCCCCC4)ccc31)[C@H](C(=O)NC[C@H](O)c1ccccc1)[C@H]1C(=O)O[C@H](c3ccccc3)[C@H](c3ccccc3)N1[C@@H]2c1ccc(OCCO)cc1 and report
Response: 0.187

Request: // repeat for CC(C)(C)OC(=O)CC[C@@]1(C(=O)N2CCCCC2)N=C(c2ccc(OCCCO)cc2)O[C@@H]1c1ccccc1CN=[N+]=[N-] and report
Response: 0.831

Request: // repeat for O=C1O[C@H](c2ccccc2)[C@H](c2ccccc2)N2[C@H]1[C@@H](C(=O)N1CCCCCCC1)[C@]1(C(=O)Nc3ccccc31)[C@H]2c1ccc(O)cc1 and report
Response: -0.128

---

- targetOfAssay: Alpha-bungarotoxin (Bungarus multicinctus)
- measurementDescription: compounds binding labelled alpha-BTX control protein – biochemical, small-molecule microarray, Alexa647 label, 635/667 nm fluorescence, artefact control for SMM control protein annotation, profiling panel (AID 1117)
- conditionLabel: alpha-BTX-A647 binding fluorescence, higher = more signal
Mark Not satisfied for composite z-score values under -0.04, and Satisfied for everything at or above.

Request: # check: composite z-score of CCCCC(CC)C(O)C1C=CC2C(=O)NC(=O)C2N1Nc1ccccn1 (stereo unspecified) is greater than or equal to -0.04
Response: Satisfied

Request: // repeat for CCOC(=O)C[C@H]1[C@H](OC(=O)Cc2ccc3c(c2)OCO3)[C@@H](NC(=O)c2ccccc2)c2cc(OCCCO)ccc2N1C(=O)c1ccc2ccccc2n1 and report
Response: Not satisfied

Request: // repeat for [N-]=[N+]=Nc1ccccc1C[C@]1(C(=O)NCCN2CCOCC2)N=C(c2ccc(OCCCO)cc2)O[C@H]1c1ccccc1N=[N+]=[N-] and report
Response: Satisfied

Request: // repeat for CC(C)CNC(=O)[C@@]1(c2ccc([N+](=O)[O-])cc2)CC(=O)N(C(C)C)[C@@H]1c1ccc(CO)cc1 and report
Response: Not satisfied

Request: // repeat for COCCOC(=O)N1C(=O)[C@@]2(c3cc(C#CCC(C(=O)OC)C(=O)OC)ccc31)[C@H](C(=O)N1CCCCCCC1)[C@H]1C(=O)O[C@H](c3ccccc3)[C@H](c3ccccc3)N1[C@@H]2c1ccc(O)cc1 and report
Response: Satisfied

Provenance of the data: PubChem BioAssay
